System: PPARg:RXRa 90nM:30nM, anti-RXR (NR concentration 90 nM, RXRa partner concentration 30 nM)
test: PBM binding z-score (relative to random genomic background probes); higher = stronger binding; sequences stand for … in GC…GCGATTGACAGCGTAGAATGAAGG
Binary classification by PBM binding z-score, with 2 as an inclusive lower bound for yes; all other cases are no.

seq | class_label
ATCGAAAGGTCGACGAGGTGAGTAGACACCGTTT | yes
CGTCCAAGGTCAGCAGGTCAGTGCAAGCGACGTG | yes
ATCTCTAGGTAAGACTCAGTTAAGTGAAGAACGC | no
AGTCAAAGTTCATCGAGGTAACGTAAGATATGCT | yes
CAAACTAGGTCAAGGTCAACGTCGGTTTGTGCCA | yes
ATACCAAGGTGATCGTGAGGTCGATGATACTAAC | no
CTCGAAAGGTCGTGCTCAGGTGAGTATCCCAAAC | yes
TCTTGTAGATCAACAGGAGCTTAAGAAAGATCGA | no

// data source = the supplement of paper PMC6555819
